Data credit: paper PMC8619673

test_details: in vitro
Assay type: cell-based
cond: human
parameter: viability at 6 days, 10 µM

Requested read-out: viability at 6 days, 10 µM. Entry: COc1cc(/C=C/C(=O)CC(=O)/C=C/c2ccc(O)c(OC)c2)ccc1O [curcumin, Curcumin, reference compound]
< 80%

* * *

test_details: in vitro
cond: PAMPA, BBB Permeability Classification
parameter: Papp at 18 h, 1 μM

Requested read-out: Papp at 18 h, 1 μM. Entry: `CCOC(=O)c1cc2c(O)cccc2oc1=O`
< 2 ×10⁻⁶ cm/s

Item: `O=C(/C=C/c1ccccc1O)c1c(O)c2ccccc2oc1=O`
> 4 ×10⁻⁶ cm/s

Item: NC(=O)N1c2ccccc2C=Cc2ccccc21 [Carbamazepine, carbamazepine]
> 4 ×10⁻⁶ cm/s
